Field: pIC50. Provide a value for each of the compounds that follow.
# study-target: Crm1 (Homo sapiens, UniProt O14980)
# Sequence (O14980 whole entry): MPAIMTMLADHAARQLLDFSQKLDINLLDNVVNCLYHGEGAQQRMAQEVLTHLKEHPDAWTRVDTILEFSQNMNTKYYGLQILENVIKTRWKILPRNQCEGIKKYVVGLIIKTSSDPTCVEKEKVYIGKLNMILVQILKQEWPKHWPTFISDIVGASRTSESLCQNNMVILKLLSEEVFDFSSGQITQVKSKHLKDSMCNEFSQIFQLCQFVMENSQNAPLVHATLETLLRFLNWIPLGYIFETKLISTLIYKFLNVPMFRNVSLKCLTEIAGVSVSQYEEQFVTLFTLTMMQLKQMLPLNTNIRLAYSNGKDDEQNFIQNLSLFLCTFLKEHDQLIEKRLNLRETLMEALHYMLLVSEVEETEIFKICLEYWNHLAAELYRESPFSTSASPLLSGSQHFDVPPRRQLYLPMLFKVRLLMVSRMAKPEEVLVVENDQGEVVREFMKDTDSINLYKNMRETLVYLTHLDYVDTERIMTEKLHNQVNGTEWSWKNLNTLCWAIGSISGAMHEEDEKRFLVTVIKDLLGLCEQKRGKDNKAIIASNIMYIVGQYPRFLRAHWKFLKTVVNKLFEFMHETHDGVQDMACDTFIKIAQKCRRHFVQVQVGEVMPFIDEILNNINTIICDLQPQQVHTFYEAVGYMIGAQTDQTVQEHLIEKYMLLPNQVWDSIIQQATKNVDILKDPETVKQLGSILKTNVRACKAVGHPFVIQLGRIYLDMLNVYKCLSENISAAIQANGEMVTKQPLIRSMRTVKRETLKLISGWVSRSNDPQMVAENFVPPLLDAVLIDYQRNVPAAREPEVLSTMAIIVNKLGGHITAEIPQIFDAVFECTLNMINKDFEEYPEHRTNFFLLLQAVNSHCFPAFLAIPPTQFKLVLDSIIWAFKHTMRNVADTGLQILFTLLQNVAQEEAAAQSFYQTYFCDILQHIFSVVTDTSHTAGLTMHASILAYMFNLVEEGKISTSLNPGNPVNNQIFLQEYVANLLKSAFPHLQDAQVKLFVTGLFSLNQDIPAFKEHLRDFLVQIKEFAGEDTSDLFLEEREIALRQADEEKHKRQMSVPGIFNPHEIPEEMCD
# test: Inhibition of nuclear export (RevGFP assay) / MTT cytotoxicity, Table 1
pIC50: −log10 of the molar value.

For every item below, please supply its pIC50.
1. N#Cc1cc(-c2ncn(/C=C\c3nnco3)n2)cc(C(F)(F)F)c1
2. CC(C)Oc1cc(-c2ncn(/C=C\c3nnco3)n2)cc(Cl)n1
3. CC(C)Oc1cc(-c2ncn(/C=C\c3ccccc3)n2)cc(C(F)(F)F)c1
4. COc1cc(-c2ncn(/C=C\c3nnc(C)o3)n2)cc(C(F)(F)F)c1
5. COc1cc(-c2ncn(/C=C\c3nnco3)n2)cc(Cl)n1
6. COc1cc(-c2ncn(/C=C\c3ccccn3)n2)cc(C(F)(F)F)c1

## Output
1. > 6.00
2. > 6.00
3. < 5.00
4. > 6.00
5. > 6.00
6. < 5.00

Report pIC50 for each item below.
1. Clc1cccc(-c2ncn(/C=C\c3nnco3)n2)c1
2. COc1cc(-c2ncn(/C=C\c3nnco3)n2)cc(C(F)(F)F)c1
3. Clc1cccc(-c2ncn(/C=C/c3nnco3)n2)c1
4. CC(C)Oc1cc(Cl)cc(-c2ncn(/C=C\c3nnco3)n2)c1
5. FC(F)(F)c1cc(-c2ncn(/C=C\c3nnco3)n2)cc(C(F)(F)F)c1
6. CC(C)Oc1cc(-c2ncn(/C=C\c3nnco3)n2)cc(C(F)(F)F)c1
7. CC(C)Oc1cc(-c2ncn(/C=C\c3ccccn3)n2)cc(C(F)(F)F)c1

## Output
1. > 6.00
2. > 6.00
3. 5.00 to 6.00
4. > 6.00
5. > 6.00
6. > 6.00
7. > 6.00

Dear colleague, could you please provide pIC50 for the compounds listed below?
1. CC(C)Oc1cc(-c2ncn(/C=C\c3nnco3)n2)cc(C(F)(F)F)n1
2. Oc1cc(-c2ncn(/C=C\c3nnco3)n2)cc(C(F)(F)F)c1
3. CS(=O)(=O)c1cc(-c2ncn(/C=C\c3nnco3)n2)cc(C(F)(F)F)c1
4. COc1cc(-c2ncn(/C=C\c3ccccc3)n2)cc(C(F)(F)F)c1

## Output
["> 6.00", "> 6.00", "> 6.00", "< 5.00"]
